// provenance: ChEMBL document CHEMBL3352336

# assay.overview: Retention time of the compound
# Assay type: physicochemical
readout.type: Retention_time (min)

| mol | Retention_time, min |
| --- | --- |
| CC(C)(C)OC(=O)N1CCN(C(=O)n2cccn2)CC1 | 3.92 |
| O=C(Oc1ccc2ccccc2c1)n1cccn1 | 3.96 |
| O=C(N1CCN(Cc2ccccc2)CC1)n1cccn1 | 3.894 |
| Cc1ccc(COC(=O)n2cccn2)cc1 | 4.1 |
| N#Cc1cnn(C(=O)OCCCc2ccccc2)c1 | 3.927 |
| N#Cc1cnn(C(=O)NCCCc2ccccc2)c1 | 3.915 |
| N#Cc1cnn(C(=O)NCc2ccc(OCc3ccccc3)cc2)c1 | 3.877 |
